Data provenance: paper PMC9860728

# assay-comment: Cytotoxicity MTT assay on normal Vero cells
# conditions-used: African green monkey
readout-type: IC50 at 72 h (µM)

[[record]]
compound = "CN1CCN(c2ccc(C(=O)/C=C/c3cc(Br)ccc3F)cc2)CC1 [Compound 2n]"
readout_type = "IC50 at 72 h"
number = 62

[[record]]
compound = "CN1CCN(c2ccc(C(=O)/C=C/c3ccc(F)c(C(F)(F)F)c3)cc2)CC1 [Compound 2k]"
readout_type = "IC50 at 72 h"
number = 19.9


====

# test-target: MAO-A (Homo sapiens, UniProt P21397)
# Construct: purchased Sigma Aldrich
# Sequence (P21397 1-527): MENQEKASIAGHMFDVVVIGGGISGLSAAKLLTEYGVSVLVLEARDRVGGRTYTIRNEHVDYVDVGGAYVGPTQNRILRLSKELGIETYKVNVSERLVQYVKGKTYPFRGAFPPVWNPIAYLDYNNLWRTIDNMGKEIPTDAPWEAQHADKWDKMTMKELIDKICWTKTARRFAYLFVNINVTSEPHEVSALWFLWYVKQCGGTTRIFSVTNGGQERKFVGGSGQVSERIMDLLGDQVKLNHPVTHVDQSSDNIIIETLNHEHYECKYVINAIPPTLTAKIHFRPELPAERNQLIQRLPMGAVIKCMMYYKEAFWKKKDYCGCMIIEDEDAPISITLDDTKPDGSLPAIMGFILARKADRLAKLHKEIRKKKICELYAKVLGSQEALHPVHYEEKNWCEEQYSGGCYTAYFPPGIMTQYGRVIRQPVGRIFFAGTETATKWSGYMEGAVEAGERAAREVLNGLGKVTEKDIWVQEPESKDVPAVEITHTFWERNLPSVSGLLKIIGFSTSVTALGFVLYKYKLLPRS
# assay-comment: MAO-A enzyme inhibition assay (kynuramine substrate)
# Type: biochemical
# conditions-used: mean ± SD
readout-type: IC50

[[record]]
mol = "CN1CCN(c2ccc(C(=O)/C=C/c3ccc(C(F)(F)F)cc3)cc2)CC1"
readout_type = "IC50"
result = "> 40 µM"

[[record]]
mol = "CN1CCN(c2ccc(C(=O)/C=C/c3cc(C(F)(F)F)ccc3Cl)cc2)CC1"
readout_type = "IC50"
result = "> 40 µM"

[[record]]
mol = "CN1CCN(c2ccc(C(=O)/C=C/c3cc(C(F)(F)F)cc(C(F)(F)F)c3)cc2)CC1"
readout_type = "IC50"
result = "> 40 µM"

[[record]]
mol = "CN1CCN(c2ccc(C(=O)/C=C/c3cccc(C(F)(F)F)c3)cc2)CC1"
readout_type = "IC50"
result = "> 40 µM"

[[record]]
mol = "CC(C)c1ccc(/C=C/C(=O)c2ccc(N3CCN(C)CC3)cc2)cc1"
readout_type = "IC50"
result = "16.2 µM"

[[record]]
mol = "COc1ccc(/C=C/C(=O)c2ccc(N3CCN(C)CC3)cc2)c(C(F)(F)F)c1"
readout_type = "IC50"
result = "6.67 µM"

[[record]]
mol = "CN1CCN(c2ccc(C(=O)/C=C/c3ccc(F)c(C(F)(F)F)c3)cc2)CC1"
readout_type = "IC50"
result = "> 40 µM"

[[record]]
mol = "CN1CCN(c2ccc(C(=O)/C=C/c3ccc(N(C)C)cc3)cc2)CC1"
readout_type = "IC50"
result = "> 40 µM"

[[record]]
mol = "CN1CCN(c2ccc(C(=O)/C=C/c3ccc(F)cc3)cc2)CC1"
readout_type = "IC50"
result = "> 40 µM"

[[record]]
mol = "CN1CCN(c2ccc(C(=O)/C=C/c3cc(F)cc(C(F)(F)F)c3)cc2)CC1"
readout_type = "IC50"
result = "> 40 µM"

[[record]]
mol = "COc1cc(/C=C/C(=O)c2ccc(N3CCN(C)CC3)cc2)ccc1F"
readout_type = "IC50"
result = "> 40 µM"

[[record]]
mol = "CSc1ccc(/C=C/C(=O)c2ccc(N3CCN(C)CC3)cc2)cc1"
readout_type = "IC50"
result = "> 40 µM"

[[record]]
mol = "CN1CCN(c2ccc(C(=O)/C=C/c3ccc(Cl)c(C(F)(F)F)c3)cc2)CC1"
readout_type = "IC50"
result = "> 40 µM"

[[record]]
mol = "CN1CCN(c2ccc(C(=O)/C=C/c3ccc(OC(F)F)cc3)cc2)CC1"
readout_type = "IC50"
result = "> 40 µM"

[[record]]
mol = "CN1CCN(c2ccc(C(=O)/C=C/c3ccc(F)cc3F)cc2)CC1"
readout_type = "IC50"
result = "16.5 µM"

[[record]]
mol = "CN1CCN(c2ccc(C(=O)/C=C/c3ccc(C#N)cc3)cc2)CC1"
readout_type = "IC50"
result = "> 40 µM"

